Reported MIC90 by item:
Tested on: Bacteroides fragilis
Test: In Vitro Anti Bacterial Activity (MIC90) against 90% of tested clinical Isolates of Bacteroides fragilis(15)
Format: functional
// return numeric value only (unit: mg/L, not printed)

Worked examples follow.
Exam item: What is its MIC90 for Bacteroides fragilis? Entry: C[C@@H](O)[C@H]1C(=O)N2C(C(=O)O)=C(CN3CCC[C@@H]3C(N)=O)S[C@H]12
Marked response: 16

Exam item: What is its MIC90 for Bacteroides fragilis? Entry: C[C@@H](O)[C@H]1C(=O)N2C(C(=O)O)=C(CN3CCC[C@H]3C(N)=O)S[C@H]12
Marked response: 16

Exam item: What is its MIC90 for Bacteroides fragilis? Entry: C[C@@H](O)[C@H]1C(=O)N2C(C(=O)O)=C(CN(C)CC(N)=O)S[C@H]12
Marked response: 2

More entries:
Exam item: What is its MIC90 for Bacteroides fragilis? Entry: C[C@@H](O)[C@H]1C(=O)N2C(C(=O)O)=C(CN(C)[C@@H](C)C(N)=O)S[C@H]12
Marked response: 8

Exam item: What is its MIC90 for Bacteroides fragilis? Entry: C[C@@H](O)[C@H]1C(=O)N2C(C(=O)O)=C(CN3C[C@H](O)C[C@H]3C(N)=O)S[C@H]12
Marked response: 32

---

System: Staphylococcus aureus
Assay: In Vitro Anti Bacterial Activity (MIC90) against 90% of tested clinical Isolates of Staphylococcus aureus MS (6)
Assay type: functional
Reported MIC90 by item:
Dear colleague, please send the value followed by its unit.

Worked examples follow.
Exam item: Please report the recorded MIC90 for C[C@@H](O)[C@H]1C(=O)N2C(C(=O)O)=C(CN(C)CC(N)=O)S[C@H]12 .
Marked response: 0.0075 µg/mL

Exam item: Please report the recorded MIC90 for C[C@@H](O)[C@H]1C(=O)N2C(C(=O)O)=C(CN3C[C@H](O)C[C@H]3C(N)=O)S[C@H]12 .
Marked response: 0.12 µg/mL

Exam item: Please report the recorded MIC90 for C[C@@H](O)[C@H]1C(=O)N2C(C(=O)O)=C(CN3CCC[C@@H]3C(N)=O)S[C@H]12 .
Marked response: 0.06 µg/mL

More entries:
Exam item: Please report the recorded MIC90 for C[C@@H](O)[C@H]1C(=O)N2C(C(=O)O)=C(CN(C)[C@@H](C)C(N)=O)S[C@H]12 .
Marked response: 0.12 µg/mL

Exam item: Please report the recorded MIC90 for C[C@@H](O)[C@H]1C(=O)N2C(C(=O)O)=C(CN3CCC[C@H]3C(N)=O)S[C@H]12 .
Marked response: 0.06 µg/mL

---

Tested on: Escherichia coli
Assay: In Vitro antibacterial activity against (Ec L) Escherichia coli […] strain
Assay type: functional
# note: boundary value 1 µg/mL maps to NOT MET; MIC below it maps to MET

Exam item: Hi there! Is MIC for C[C@@H](O)[C@H]1C(=O)N2C(C(=O)O)=C(CN(C)CC(N)=O)S[C@H]12 below 1 µg/mL, do you know?
Marked response: MET

Exam item: Hi there! Is MIC for C[C@@H](O)[C@H]1C(=O)N2C(C(=O)O)=C(CN3CCC[C@H]3C(N)=O)S[C@H]12 below 1 µg/mL, do you know?
Marked response: NOT MET

Exam item: Hi there! Is MIC for C[C@@H](O)[C@H]1C(=O)N2C(C(=O)O)=C(SCCNC=N)C[C@H]12 [IMIPENEM ANHYDROUS] below 1 µg/mL, do you know?
Marked response: MET

Exam item: Hi there! Is MIC for CCN(CC(N)=O)CC1=C(C(=O)O)N2C(=O)[C@H]([C@@H](C)O)[C@H]2S1 below 1 µg/mL, do you know?
Marked response: MET

Exam item: Hi there! Is MIC for C[C@@H](O)[C@H]1C(=O)N2C(C(=O)O)=C(CN(C)C(Cc3ccccc3)C(N)=O)S[C@H]12 (stereo partly specified) below 1 µg/mL, do you know?
Marked response: NOT MET

More entries:
Exam item: Hi there! Is MIC for C[C@@H](O)[C@H]1C(=O)N2C(C(=O)O)=C(CN3CCC[C@H]3C(=O)O)S[C@H]12 below 1 µg/mL, do you know?
Marked response: NOT MET

Exam item: Hi there! Is MIC for C[C@@H](O)[C@H]1C(=O)N2C(C(=O)O)=C(CN(C)C(CO)C(N)=O)S[C@H]12 (stereo partly specified) below 1 µg/mL, do you know?
Marked response: MET

Exam item: Hi there! Is MIC for C[C@@H](O)[C@H]1C(=O)N2C(C(=O)O)=C(CN3C[C@@H](O)C[C@H]3C(N)=O)S[C@H]12 below 1 µg/mL, do you know?
Marked response: NOT MET

The measurements presented in this section are drawn from ChEMBL document CHEMBL1128718.
